IC50: recorded values
biological target: K-Ras G12C (Homo sapiens (Human), UniProt P01116+P62937, G12C); assay: Ras-Raf (BRAF RBD) disruption / FRET / MOA assay, KRAS G12C; assay type: biochemical; conditions: KRAS G12C; Ras-Raf disruption/FRET/MOA assay; read-out: IC50* KRAS G12C FRET data
Sequence (P01116-2 other isoform, or with tags, fused parts or gaps G12C): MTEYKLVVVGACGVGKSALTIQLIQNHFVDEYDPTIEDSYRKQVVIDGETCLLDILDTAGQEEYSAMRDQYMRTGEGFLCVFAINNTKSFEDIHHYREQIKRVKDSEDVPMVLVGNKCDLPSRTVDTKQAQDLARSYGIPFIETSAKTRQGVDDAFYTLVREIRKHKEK
Sequence (P62937 whole entry): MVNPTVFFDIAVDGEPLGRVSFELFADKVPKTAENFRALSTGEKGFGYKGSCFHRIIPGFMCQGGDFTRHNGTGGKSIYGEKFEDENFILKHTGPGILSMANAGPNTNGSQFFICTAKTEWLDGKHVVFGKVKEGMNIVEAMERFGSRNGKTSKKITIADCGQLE

Some solved cases for reference:
[[record]]
compound = "CCn1c(-c2cccnc2[C@H](C)OC)c2c3cc(ccc31)-c1csc(n1)C[C@H](NC(=O)[C@H](C(C)C)N(C)C(=O)N1CCC3(CC1)CN(C(=O)/C=C/CN(C)C)C3)C(=O)N1CCC[C@H](N1)C(=O)OCC(C)(C)C2 (atropisomer, axis not shown) [Example A650]"
observed_result = "10 to 100 nM"

[[record]]
compound = "CC#CC(=O)N1CC[C@H](C(=O)N(C)[C@H](C(=O)N[C@H]2Cc3cccc(c3)-c3ccc4c(c3)c(c(-c3cccnc3[C@H](C)OC)n4CC)CC(C)(C)COC(=O)[C@@H]3CCCN(N3)C2=O)C(C)C)C1 (atropisomer, axis not shown) [Example A173]"
observed_result = "100 to 1000 nM"

[[record]]
compound = "CCn1c(-c2cccnc2[C@H](C)OC)c2c3cc(ccc31)-c1cccc(c1)C[C@H](NC(=O)[C@H](C(C)C)N(C)C(=O)[C@H]1CCN(C(=O)C#CC3CCO3)C1)C(=O)N1CCC[C@H](N1)C(=O)OCC(C)(C)C2 (mixture of isomers) [Example A509]"
observed_result = "< 10 nM"

[[record]]
compound = "CCn1c(-c2cccnc2[C@H](C)OC)c2c3cc(ccc31)-c1cnc(o1)C[C@H](NC(=O)[C@H](C(C)C)N(C)C(=O)[C@H]1CCN(C(=O)C#CC(C)(C)N(C)C)C1)C(=O)N1CCC[C@H](N1)C(=O)OCC(C)(C)C2 (atropisomer, axis not shown) [Example A692]"
observed_result = "< 10 nM"

[[record]]
compound = "C=CC(=O)N1CCCC2(CCN(C(=O)N(C)[C@H](C(=O)N[C@H]3Cc4nc(cs4)-c4ccc5c(c4)c(c(-c4cccnc4[C@H](C)OC)n5CC)CC(C)(C)COC(=O)[C@@H]4CCCN(N4)C3=O)C(C)C)CC2)C1 (atropisomer, axis not shown) [Example A635]"
observed_result = "100 to 1000 nM"

[[record]]
compound = "CCn1c(-c2cccnc2[C@H](C)OC)c2c3cc(ccc31)-c1cccc(c1)C[C@H](NC(=O)[C@@H](COC1CN(C(=O)C#CC(C)(C)N(C)CCO)C1)C(C)C)C(=O)N1CCC[C@H](N1)C(=O)OCC(C)(C)C2 (atropisomer, axis not shown) [Example A657]"
observed_result = "10 to 100 nM"

[[record]]
compound = "C=CC(=O)N(C)C1CCN(C(=O)N(C)[C@H](C(=O)N[C@H]2Cc3nc(cs3)-c3ccc4c(c3)c(c(-c3cccnc3[C@H](C)OC)n4CC)CC(C)(C)COC(=O)[C@@H]3CCCN(N3)C2=O)C(C)C)CC1 (atropisomer, axis not shown) [Example A383]"
observed_result = "10 to 100 nM"

[[record]]
compound = "C=CC(=O)N1CC[C@H](C(=O)N(C)[C@H](C(=O)N[C@H]2Cc3cccc(c3)-c3ccc4c(c3)c(c(-c3cccnc3[C@H](C)OC)n4CC)CC(C)(C)COC(=O)[C@@H]3CCCN(N3)C2=O)[C@@H](C)C(F)(F)F)C1 (atropisomer, axis not shown) [Example A640]"
observed_result = "100 to 1000 nM"


Documented IC50 of C=CC(=O)N1CC(C(=O)N(C)[C@H](C(=O)N[C@H]2Cc3cc(O)cc(c3)-c3ccc4c(c3)c(c(-c3cccnc3[C@H](C)OC)n4CC)CC(C)(C)COC(=O)[C@@H]3CCCN(N3)C2=O)C(C)C)C1 (atropisomer, axis not shown) [Example A256] : < 10 nM
